Quick reference for AC50 among some compounds
molecular target: UniProtKB P35372
Sequence (P35372 whole entry): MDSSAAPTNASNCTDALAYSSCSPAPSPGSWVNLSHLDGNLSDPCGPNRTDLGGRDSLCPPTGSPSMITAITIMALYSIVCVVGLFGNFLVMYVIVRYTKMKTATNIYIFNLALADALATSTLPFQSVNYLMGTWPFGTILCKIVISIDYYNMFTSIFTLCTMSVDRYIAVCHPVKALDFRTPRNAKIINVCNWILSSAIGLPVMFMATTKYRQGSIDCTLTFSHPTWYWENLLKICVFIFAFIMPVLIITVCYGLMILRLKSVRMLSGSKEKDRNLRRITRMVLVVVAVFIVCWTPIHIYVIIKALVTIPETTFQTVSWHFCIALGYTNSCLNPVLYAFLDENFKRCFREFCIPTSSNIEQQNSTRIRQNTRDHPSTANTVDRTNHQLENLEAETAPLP

COc1ccc2c(c1)N(C[C@H](C)CN(C)C)c1ccccc1S2    13.5 µM
OCCN1C[C@H](O)[C@@H](O)[C@H](O)[C@H]1CO    > 30 µM
OC(CCN1CCCCC1)(c1ccccc1)c1ccccc1    19.4 µM
CN(C)CCn1nnnc1SCC1=C(C(=O)O)N2C(=O)[C@@H](NC(=O)Cc3csc(N)n3)[C@H]2SC1    > 30 µM
CC(C)(C)C(=O)OCOC(=O)[C@@H]1N2C(=O)[C@@H](NC(=O)[C@H](N)c3ccccc3)[C@H]2SC1(C)C    > 30 µM
CO[C@]12C[C@@H](COC(=O)c3cncc(Br)c3)CN(C)[C@@H]1Cc1cn(C)c3cccc2c13    2.38 µM

INPUT: Provide the reported AC50 (system: UniProtKB P35372) for `N[C@H](C(=O)O)[C@H](O)c1ccc(O)c(O)c1`
OUTPUT: > 30 µM

INPUT: Jot down AC50 (UniProtKB P35372) of `CC(=O)OCC1=C(C(=O)O)N2C(=O)[C@@H](NC(=O)[C@H](N)c3ccccc3)[C@H]2SC1` .
OUTPUT: > 30 µM

INPUT: Lab note: record AC50 of CC[C@H]1CN2CC[C@H]1C[C@H]2[C@H](O)c1ccnc2ccc(OC)cc12 [HYDROQUININE] tested on UniProtKB P35372.
OUTPUT: 8.13 µM

INPUT: With UniProtKB P35372 as the test system, provide measured AC50 for this compound: `CCCCCNC(=N)N/N=C/c1c[nH]c2ccc(OC)cc12`
OUTPUT: 2.32 µM

INPUT: Give AC50 for this entry on UniProtKB P35372: O=C(Cc1ccc(-c2ccccc2)cc1)Nc1ccccn1 [DIFENPIRAMIDE]
OUTPUT: > 30 µM

INPUT: Specify the recorded AC50 for `CC(=O)Nc1ccc(O)cc1` , system: UniProtKB P35372.
OUTPUT: > 30 µM

INPUT: Report value only: AC50, UniProtKB P35372, CC(=O)OCC(=O)[C@@]1(O)CC[C@H]2[C@@H]3CCC4=CC(=O)C=C[C@]4(C)[C@@]3(Cl)[C@@H](Cl)C[C@@]21C [DICHLORISONE ACETATE]
OUTPUT: > 30 µM

====

Below are AC50 values measured for D(3) dopamine receptor (Homo sapiens, UniProt P35462).

CC1(C)CCC(CN2CCN(c3ccc(C(=O)NS(=O)(=O)c4ccc(NCC5CCOCC5)c([N+](=O)[O-])c4)c(Oc4cnc5[nH]ccc5c4)c3)CC2)=C(c2ccc(Cl)cc2)C1 [VENETOCLAX]    > 30 µM
C#C[C@]1(O)CC[C@H]2[C@@H]3CCc4cc(OC5CCCC5)ccc4[C@H]3CC[C@@]21C [QUINESTROL]    > 30 µM
O=C(O)CCCCCCCC(=O)O [AZELAIC ACID]    > 30 µM
Cc1c(OCC(F)(F)F)ccnc1C[S+]([O-])c1nc2ccccc2[nH]1 (stereo unspecified) [LANSOPRAZOLE]    > 10 µM
CC(=O)c1ccc2c(c1)N(CCCN(C)C)c1ccccc1S2 [ACEPROMAZINE]    0.013 µM

Please examine the following record next.
INPUT: Give the observed AC50 of O=C(Cc1ccc(-c2ccccc2)cc1)Nc1ccccn1 [DIFENPIRAMIDE] for D(3) dopamine receptor (Homo sapiens, UniProt P35462).
OUTPUT: > 30 µM
